target: soluble TSHR protein (ELISA coat) (human, UniProt P16473 22-260, limits assumed); test: ELISA, plate coated with soluble TSHR, antibody at 100 nM, anti-human IgG Fc-HRP;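 note: binding of antibody variants to soluble TSHR coated at 2 µg/ml, with colour developed using TMB substrate and stopped with H2SO4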
I'd appreciate it if you could supply ELISA (OD 450) at 100 nM values for the items below.
Numbers only, in OD 450.

Solved entries:
TSHB-25 (antibody, V domains shown) VH: EVQLVQSGAEVKKPGASVKVSCKASGYSLTDNWIGWVRQAPGQGLEWMGIIYPGDSDTRYAQKFQGRVTMTADKSTSTVYMELSSLRSEDTAVYYCVGLDWNYNPLRYWGQGTLVTVSS VL: QSVLTQPPSVSGAPGQRVTISCSGSSSDIGSNYVSWYQQLPGTAPKLLIYDNNKRPSGVPDRFSGSKSGTSASLAITGLQAEDEADYYCGTWDSRLGIAVFGGGTKLTVL = 0.409
TSHB-21 (antibody, V domains shown) VH: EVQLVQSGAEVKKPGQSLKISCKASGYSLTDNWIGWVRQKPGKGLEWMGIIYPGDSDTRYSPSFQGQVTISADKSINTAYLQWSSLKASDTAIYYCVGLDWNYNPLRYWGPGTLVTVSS VL: QSVLTQPPSVSAAPGQKVTISCSGSSSDIGSNYVSWYQQLPGTAPKLLIYDNNKRPSGIPDRFSGSKSGTSATLGITGLQTGDEADYYCATWDSRLGIAVFGGGTQLTVL = 0.473

As a next step, examine the binder that follows.
## Task # query: ELISA (OD 450) at 100 nM of entry TSHB-15 (antibody, V domains shown) VH: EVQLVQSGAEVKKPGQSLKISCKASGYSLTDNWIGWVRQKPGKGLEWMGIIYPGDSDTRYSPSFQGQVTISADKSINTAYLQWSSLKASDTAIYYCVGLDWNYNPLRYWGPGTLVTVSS VL: QSVLTQPPSVSAAPGQKVTISCSGSSSDIGSNYVSWYQQLPGTAPKLLIYDNNKRPSGIPDRFSGSKSGTSATLGITGLQTGDEADYYCGTWDSRFGIAVFGGGTQLTVL
## Result 0.517
